test system: sodium channel; test: Guanidine influx assay; assay type: cell-based, human or rat; conditions: known cell line that expresses a sodium channel; read-out: IC50 Activity Level
pIC50: −log10 of the molar value.

| compound | measured target | pIC50 |
| --- | --- | --- |
| CCOC(=O)COc1ccc(CN2C(=O)C3(COc4cc5c(cc43)CCO5)c3ccccc32)cc1 (stereo not shown) [Example 14.1] | sodium channel | 7.00 to 9.00 |
| NC(=O)COc1ccc(CN2C(=O)C3(COc4cc5c(cc43)CCO5)c3ccccc32)cc1 (stereo not shown) [Example 13.1] | sodium channel | 7.00 to 9.00 |
| C[S+]([O-])c1ccc(CN2C(=O)C3(COc4cc5c(cc43)CCO5)c3ccccc32)cc1 (stereo not shown) [Example 17] | sodium channel | 6.00 to 7.00 |
| COCCOc1ccc(CN2C(=O)C3(COc4cc5c(cc43)OCCO5)c3ccccc32)cc1 (stereo not shown) [Example 13.3] | sodium channel | 7.00 to 9.00 |

----------
| molecule | melting point |
| --- | --- |
| CC(N)COc1ccc2c(c1)OCC21C(=O)N(C[C@H]2CCCO2)c2ccccc21.Cl (some centres unmarked) | 120 to 130 °C |
| CN(C)CCOc1ccc2c(c1)OCC21C(=O)Nc2ccccc21 (centres unmarked) | 95 to 97 °C |
| CC(C)(C)OC(=O)N1CC[C@@H](Nc2ccc(CN3C(=O)C4(COc5cc6c(cc54)OCO6)c4ccccc43)cc2)C1 (some centres unmarked) | 115 to 118 °C |
| O=C(O)COc1ccc(CN2C(=O)C3(COc4cc5c(cc43)CCO5)c3ccccc32)cc1 (centres unmarked) | 265 to 266 °C |
| CCOC(=O)COc1ccc(CN2C(=O)C3(COc4cc5c(cc43)OCCO5)c3ccccc32)cc1 (centres unmarked) | 59 to 61 °C |
| CNC(=O)COc1cccc(CN2C(=O)C3(COc4cc5c(cc43)CCO5)c3ccccc32)c1 (centres unmarked) | 175 to 176 °C |
| CN(C)CCOc1ccc(CN2C(=O)C3(COc4cc5c(cc43)OCCO5)c3ccccc32)cc1 (centres unmarked) | 77 to 79 °C |
| O=C(O)COc1ccc(CN2C(=O)C3(COc4cc5c(cc43)OCCO5)c3ccccc32)cc1 (centres unmarked) | 223 to 224 °C |

----------
biological target: CYP3A4 (Homo sapiens); construct: purchased Invitrogen Corporation (Vivid CYP450 Screening Kit); assay: Cytochrome P450 (CYP450) inhibition assay, fluorescence-based; type: in vitro ADME; settings: recombinant CYP3A4 (P450 Baculosomes), probe Vivid substrate (fluorogenic)
Sequence (P08684 whole entry): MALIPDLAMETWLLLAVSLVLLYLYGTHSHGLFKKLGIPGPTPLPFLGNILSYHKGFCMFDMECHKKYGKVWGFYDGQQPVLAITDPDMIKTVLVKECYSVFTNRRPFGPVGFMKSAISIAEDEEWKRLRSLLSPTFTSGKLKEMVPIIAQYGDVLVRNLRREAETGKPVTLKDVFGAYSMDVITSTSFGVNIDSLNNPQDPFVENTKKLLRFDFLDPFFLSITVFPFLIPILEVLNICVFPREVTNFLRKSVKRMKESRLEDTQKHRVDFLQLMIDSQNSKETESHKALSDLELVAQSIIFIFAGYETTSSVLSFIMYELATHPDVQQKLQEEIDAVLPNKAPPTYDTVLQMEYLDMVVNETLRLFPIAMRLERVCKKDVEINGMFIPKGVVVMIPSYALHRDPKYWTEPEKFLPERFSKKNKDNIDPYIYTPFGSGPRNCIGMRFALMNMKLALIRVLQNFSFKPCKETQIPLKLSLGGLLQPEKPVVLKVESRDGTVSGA
Measured inhibition at 10 µM values are reported for all entries that follow.

| molecule | inhibition at 10 µM |
| --- | --- |
| N/C(CN1C(=O)C2(COc3cc4c(cc32)OCO4)c2c(Cl)cccc21)=N\OC(=O)C1CC1 (centres unmarked) | > 50% |
| NC(=O)COc1cccc(CN2C(=O)C3(COc4cc5c(cc43)CCO5)c3ccccc32)c1 (centres unmarked) | > 50% |
| NC(=O)COc1ccc(CN2C(=O)C3(COc4cc5c(cc43)OCCO5)c3ccccc32)cc1 (centres unmarked) | > 50% |
| CCOC(=O)COc1ccc(CN2C(=O)C3(COc4cc5c(cc43)OCCO5)c3ccccc32)cc1 (centres unmarked) | < 50% |
| O=C(O)COc1cccc(CN2C(=O)C3(COc4cc5c(cc43)CCO5)c3ccccc32)c1 (centres unmarked) | < 50% |
| CNC(=O)COc1cccc(CN2C(=O)C3(COc4cc5c(cc43)CCO5)c3ccccc32)c1 (centres unmarked) | > 50% |
| O=C(O)COc1ccc(CN2C(=O)C3(COc4cc5c(cc43)OCCO5)c3ccccc32)cc1 (centres unmarked) | < 50% |
| CC(=O)N1CCC[C@H]1CN1C(=O)C2(COc3cc4c(cc32)CCO4)c2ccccc21 (some centres unmarked) | > 50% |
